Tested on: AGS
Test: Anti-proliferative 2D CTG assay, AGS
Assay type: cell-based
Conditions: Homo sapiens, AGS, 96 h, AGS cells, 4 days incubation, read-out: AGS cell IC50
Listing: IC50 of selected compounds

- COMPOUND: "C#Cc1c(F)ccc2cc(O)cc(-c3ncc4c(N5C[C@@H]6CC[C@](C7CC7)(C5)N6)nc(OC[C@@]56CCCN5C/C(=C/F)C6)nc4c3F)c12"
  IC50: "28.1 nM"
- COMPOUND: "[2H]C([2H])([2H])OCC12CCC(CN(c3nc(OCC45CC(=C)CN4CC(=C)C5)nc4c(F)c(-c5cc(O)cc6ccc(F)c(C#C)c56)ncc34)C1)N2 (stereo not drawn)"
  IC50: "22.9 nM"
- COMPOUND: "C#Cc1c(F)ccc2cc(O)cc(-c3ncc4c(N5C[C@@H]6CC[C@](C7CC7)(C5)N6)nc(OC[C@@]56CCCN5CC(=C)C6)nc4c3F)c12"
  IC50: "21 nM"
- COMPOUND: "C#Cc1c(F)ccc2cc(O)cc(-c3ncc4c(N5C[C@@H]6CC[C@](CC)(C5)N6)nc(OCC56CC(=C)CN5CC(=C)C6)nc4c3F)c12"
  IC50: "14.1 nM"
- COMPOUND: "[2H]C([2H])([2H])C([2H])([2H])[C@@]12CC[C@@H](CN(c3nc(OC[C@@]45CCCN4CC(=C(F)F)C5)nc4c(F)c(-c5cc(O)cc6ccc(F)c(C#C)c56)ncc34)C1)N2"
  IC50: "4.8 nM"
- COMPOUND: "C#Cc1c(F)ccc2cc(O)cc(-c3ncc4c(N5CC6CCC(COC)(C5)N6)nc(OCC56CC(=C)CN5CC(=C)C6)nc4c3F)c12 (stereo not drawn)"
  IC50: "36.8 nM"

---

Assay: Pharmacokinetic experiment in mice (single PO or IV administration)
Details: male, ICR, mouse, plasma, iv, 2 mg/kg
Cmax under 800 ng/mL gets MET, anything at or over 800 ng/mL gets NOT MET.

- COMPOUND: "C#Cc1c(F)ccc2cc(O)cc(-c3ncc4c(N5CC6CCC(C5)N6)nc(OC[C@@]56CCCN5C[C@H](F)C6)nc4c3F)c12 [Positive Compound 1, reference compound]"
  DISCRETE_LABEL: "NOT MET"
- COMPOUND: "C#Cc1c(F)ccc2cc(O)cc(-c3ncc4c(N5C[C@@H]6CC[C@](C7CC7)(C5)N6)nc(OC[C@@]56CCCN5C/C(=C\\F)C6)nc4c3F)c12"
  DISCRETE_LABEL: "NOT MET"
- COMPOUND: "[2H]C([2H])([2H])C([2H])([2H])[C@@]12CC[C@@H](CN(c3nc(OC[C@@]45CCCN4C/C(=C\\F)C5)nc4c(F)c(-c5cc(O)cc6ccc(F)c(C#C)c56)ncc34)C1)N2"
  DISCRETE_LABEL: "MET"
- COMPOUND: "[2H]C([2H])([2H])C([2H])([2H])[C@@]12CC[C@@H](CN(c3nc(OC[C@@]45CCCN4C/C(=C\\F)C5)nc4c(F)c(-c5cc(N)cc6ccc(F)c(C#C)c56)ncc34)C1)N2"
  DISCRETE_LABEL: "MET"
- COMPOUND: "C#Cc1c(F)ccc2cc(O)cc(-c3ncc4c(N5C[C@H]6CC[C@@H](C5)N6)nc(OC[C@@]56CCCN5C/C(=C/F)C6)nc4c3F)c12 [Reference Compound 2, reference compound]"
  DISCRETE_LABEL: "NOT MET"
- COMPOUND: "[2H]C([2H])([2H])OC[C@@]12CC[C@@H](CN(c3nc(OC[C@@]45CCCN4C/C(=C\\F)C5)nc4c(F)c(-c5cc(O)cc6ccc(F)c(C#C)c56)ncc34)C1)N2"
  DISCRETE_LABEL: "MET"
